B1: Pistol ribozyme (parent)
chain: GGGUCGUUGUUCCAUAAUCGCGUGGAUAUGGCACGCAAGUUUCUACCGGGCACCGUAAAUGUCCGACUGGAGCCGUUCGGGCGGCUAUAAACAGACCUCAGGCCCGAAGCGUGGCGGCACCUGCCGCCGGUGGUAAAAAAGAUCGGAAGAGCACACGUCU

variants of: B1; test: aptazyme ON/OFF ratio, guanine; higher = stronger switching; co-transcriptional cleavage with and without guanine
endpoint name: aptazyme ON/OFF ratio
Give the figure only, with no unit attached.

Previously resolved entries follow.
| mutant code | value observed |
| --- | --- |
| G9A U10G U11A C12G C13G | 1.45 |
| U7G G9C U10C U11C C12U C13A | 1.03 |
| U7A U8C U10C U11A C12G C13A | 1.17 |
| U7A U8C G9U U11A C12U C13U | 1.16 |

Would you kindly look at the next entry?
Given item U7G U8G U11A C12U C13G , the value recorded as its aptazyme ON/OFF ratio is 1.36
